- Protocol: self-splicing fitness, log relative to wild type (ln ratio); higher = more splicing; Tetrahymena group I intron in knt gene, E. coli kanamycin selection, DiMSum; sequences stand for … in CUCUCU…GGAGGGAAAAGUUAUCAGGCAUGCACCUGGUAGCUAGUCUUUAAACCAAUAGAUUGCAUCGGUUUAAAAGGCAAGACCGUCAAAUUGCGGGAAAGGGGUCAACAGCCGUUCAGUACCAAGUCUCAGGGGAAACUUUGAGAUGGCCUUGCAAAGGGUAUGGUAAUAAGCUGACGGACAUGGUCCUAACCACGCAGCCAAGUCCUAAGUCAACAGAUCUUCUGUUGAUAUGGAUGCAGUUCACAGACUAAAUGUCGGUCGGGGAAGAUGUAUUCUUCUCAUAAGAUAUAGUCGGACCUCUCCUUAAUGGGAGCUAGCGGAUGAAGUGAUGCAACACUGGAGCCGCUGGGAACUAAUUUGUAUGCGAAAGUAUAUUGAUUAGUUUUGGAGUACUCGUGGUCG;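 note: selection with 25 µg/mL kanamycin versus none on LB agar overnight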
- Details: 30 °C
Property measured: self-splicing fitness (ln)
Number, no unit, nothing else.

Sample records with self-splicing fitness (ln):
In [3]: df
Out[3]:
         query_sequence  experimental_value
0  CCCCAGCAAUAUUACGCAGU               -3.25
1  ACCUAGCAAUAUUACGAAUC               -2.94
2  UAAGAGCAAUAUUACGGGAC               -2.98

Lookup: Check the records and state self-splicing fitness (ln) for "CAUAAGCAAUAUUACGUGCC"
Found: -3.1

Lookup: Report self-splicing fitness (ln) for "GAUCAGCAAUAUUACGUAUA"
Found: -0.819

Lookup: For the sequence "UCUAAGCAAUAUUACGCGAG" , give its reported self-splicing fitness (ln).
Found: -3.69

Lookup: Provide only the value of recorded self-splicing fitness (ln) for "CUCGAGCAAUAUUACGGCGA"
Found: -3.88

Lookup: Given "UCUUAGCAAUAUUACGUUUA" , respond with its self-splicing fitness (ln).
Found: -2.75

Lookup: Please report self-splicing fitness (ln) for the following sequence: "UCCCAGCAAUAUUACGUGAU"
Found: -2.17

Lookup: # return recorded self-splicing fitness (ln) for input "AUAGAGCAAUAUUACGGUGG"
Found: -1.24

Lookup: Name the recorded self-splicing fitness (ln) of the sequence listed here: "AGCUAGCAAUAUUACGCCCU"
Found: -0.747

Lookup: Give the reported value of self-splicing fitness (ln) for this record: "CGUAAGCAAUAUUACGAUAA"
Found: -2.66

Lookup: Please look at this sequence and report its self-splicing fitness (ln): "GGCGAGCAAUAUUACGCUUU"
Found: -2.76

Lookup: Output self-splicing fitness (ln) of "UAUGAGCAAUAUUACGGACC"
Found: -2.56

Lookup: Hello, please tell me recorded self-splicing fitness (ln) for this one: "AGUUAGCAAUAUUACGAGCC"
Found: -1.84

Lookup: Please report self-splicing fitness (ln) for the following sequence: "UGGAAGCAAUAUUACGACGG"
Found: -0.691

Lookup: Recall and state the measured self-splicing fitness (ln) for "UCUCAGCAAUAUUACGUUAA" .
Found: -2.79

Lookup: Supply measured self-splicing fitness (ln) of "GUAAAGCAAUAUUACGAAGU" in your reply.
Found: -1.47

Lookup: Report self-splicing fitness (ln) for "GCUCAGCAAUAUUACGGGCU"
Found: -4.72

Lookup: Note down self-splicing fitness (ln) recorded for "UUGGAGCAAUAUUACGGGGG"
Found: -2.12

Lookup: // fetch self-splicing fitness (ln) given entry "CGAAAGCAAUAUUACGUUAC"
Found: -3.15

Lookup: Check the records and state self-splicing fitness (ln) for "UAUCAGCAAUAUUACGCGCG"
Found: 0.181

Lookup: Give recorded self-splicing fitness (ln). "CUUGAGCAAUAUUACGCACU"
Found: -3.64
